# SYSTEM NAME: various mutants of kinase EGFR (BaF3 cell lines stably transfected with kinase) (Homo sapiens, UniProt P00533, T790M/C797S, form not given)
# Construct: other: BaF3 cells stably transfected with EGFR Δ19Del/T790M/C797S; MTS, 48; other: BaF3 cell line stably transfected with EGFR Δ19Del/T790M/C7
# Sequence (P00533 with tags, fused parts or gaps DEL746-750/T790M/C797S, form open): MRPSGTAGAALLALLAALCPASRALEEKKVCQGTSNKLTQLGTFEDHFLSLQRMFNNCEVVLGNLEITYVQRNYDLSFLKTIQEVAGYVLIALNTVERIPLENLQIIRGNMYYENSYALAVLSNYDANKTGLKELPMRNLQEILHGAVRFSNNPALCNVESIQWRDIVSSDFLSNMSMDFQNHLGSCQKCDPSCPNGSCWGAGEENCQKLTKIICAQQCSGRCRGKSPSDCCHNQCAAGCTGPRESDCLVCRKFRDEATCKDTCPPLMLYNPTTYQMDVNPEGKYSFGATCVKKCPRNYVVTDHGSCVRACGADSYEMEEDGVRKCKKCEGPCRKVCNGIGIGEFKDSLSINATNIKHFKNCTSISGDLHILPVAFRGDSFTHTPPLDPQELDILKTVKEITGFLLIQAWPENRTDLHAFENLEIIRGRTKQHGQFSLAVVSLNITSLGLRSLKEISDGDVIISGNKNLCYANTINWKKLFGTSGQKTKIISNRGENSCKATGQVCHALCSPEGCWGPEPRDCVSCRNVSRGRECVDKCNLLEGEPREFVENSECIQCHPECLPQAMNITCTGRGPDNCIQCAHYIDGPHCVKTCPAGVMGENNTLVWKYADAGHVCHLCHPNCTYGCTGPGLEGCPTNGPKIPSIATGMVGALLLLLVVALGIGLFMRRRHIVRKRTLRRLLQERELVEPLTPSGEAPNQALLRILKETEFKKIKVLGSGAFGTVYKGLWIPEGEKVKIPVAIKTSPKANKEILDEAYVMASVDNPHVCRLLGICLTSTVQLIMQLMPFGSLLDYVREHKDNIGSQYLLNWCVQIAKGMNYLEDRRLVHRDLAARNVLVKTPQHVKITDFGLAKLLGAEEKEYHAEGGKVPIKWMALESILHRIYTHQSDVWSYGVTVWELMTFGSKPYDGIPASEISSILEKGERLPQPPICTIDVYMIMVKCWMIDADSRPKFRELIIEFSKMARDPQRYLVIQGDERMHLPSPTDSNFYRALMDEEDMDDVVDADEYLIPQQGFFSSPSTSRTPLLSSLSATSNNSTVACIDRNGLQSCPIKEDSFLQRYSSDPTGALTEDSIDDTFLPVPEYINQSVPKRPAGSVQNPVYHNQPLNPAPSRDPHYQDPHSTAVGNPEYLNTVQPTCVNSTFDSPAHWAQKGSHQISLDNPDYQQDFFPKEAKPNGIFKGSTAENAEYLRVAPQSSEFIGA
# ASSAY: Growth inhibitory activity of compounds on BaF3 cell lines stably transfected with kinase (MTS, 48 h)
# Assay type: cell-based
# SETUP CONDITIONS: BaF3 cells stably transfected with EGFR Δ19Del/T790M/C797S, read-out: IC50, growth inhibition, Δ19Del/T790M/C797S
Please respond with reported IC50 for every item in the list.

Quote IC50 reported for CCc1cc(Nc2ncc(Br)c(Nc3ccc4nccnc4c3N(C)S(=O)(=O)CC)n2)c(OC)cc1N1CCC(N(C)C)CC1 please. ≤ 0.05 µM

Please look at the items below and tell me IC50 for each one, in order.
1. CN1CCN(S(=O)(=O)c2ccc(Nc3ncc(Br)c(Nc4ccc5nccnc5c4N(C)S(C)(=O)=O)n3)cc2)CC1
2. CCc1cc(Nc2ncc(C)c(Nc3ccc4nccnc4c3N(C)S(C)(=O)=O)n2)c(OC)cc1N1CCC(N(C)C)C1 (stereo not drawn)

1. 0.05 to 0.5 µM
2. ≤ 0.05 µM
